assay_name: Clearance in Sprague-Dawley rat at 10 mg/kg, po or 2 mg/kg, iv
Format: ADME, organism-based
experimental_context: in vivo
Below, each entry is listed alongside its reported clearance.
assay_readout: clearance

{"structure": "COC(=O)N[C@H](C(=O)N1CCC[C@H]1c1ncc(-c2ccc3c(c2)Oc2ccc(-c4cnc([C@@H]5CCCN5C(=O)[C@@H](NC(=O)OC)C(C)C)[nH]4)cc2N3C)[nH]1)C(C)C", "observed_result": "32 mL/min/kg"}
{"structure": "COC(=O)N[C@H](C(=O)N1CCC[C@H]1c1ncc(-c2ccc3c(c2)Oc2ccc(-c4cnc([C@@H]5CCCN5C(=O)[C@@H](NC(=O)OC)C(C)C)[nH]4)cc2C3(C)C)[nH]1)C(C)C", "observed_result": "19 mL/min/kg"}
{"structure": "COC(=O)N[C@H](C(=O)N1CCC[C@H]1c1ncc(-c2ccc3cc4cc(-c5cnc([C@@H]6CCCN6C(=O)[C@@H](NC(=O)OC)C(C)C)[nH]5)ccc4cc3c2)[nH]1)C(C)C", "observed_result": "7.7 mL/min/kg"}

###

System: Hepatitis C virus
assay_name: Antiviral activity against HCV genotype 1a assessed as decrease in HCV replicon RNA replication after 3 days by taqman assay based cell based replicon method
Format: functional, organism-based, Hepacivirus hominis
experimental_context: subtype 1a, 72 h
pEC50: −log10 of the molar value.

{"compound": "COC(=O)N[C@H](C(=O)N1CCC[C@H]1c1ncc(-c2ccc3c(c2)Oc2ccc(-c4cnc([C@@H]5CCCN5C(=O)[C@@H](NC(=O)OC)C(C)C)[nH]4)cc2C3(C)C)[nH]1)C(C)C", "value_comparator": "=", "pEC50": 10.70}
{"compound": "COC(=O)N[C@H](C(=O)N1CCC[C@H]1c1ncc(-c2ccc3nc4cc(-c5cnc([C@@H]6CCCN6C(=O)[C@@H](NC(=O)OC)C(C)C)[nH]5)ccc4nc3c2)[nH]1)C(C)C", "value_comparator": "=", "pEC50": 10.22}
{"compound": "COC(=O)N[C@H](C(=O)N1CCC[C@H]1c1ncc(-c2ccc3c(C)c4cc(-c5cnc([C@@H]6CCCN6C(=O)[C@@H](NC(=O)OC)C(C)C)[nH]5)ccc4cc3c2)[nH]1)C(C)C", "value_comparator": "=", "pEC50": 10.70}
{"compound": "COC(=O)N[C@H](C(=O)N1CCC[C@H]1c1ncc(-c2ccc3c(c2)C(=O)c2ccc(-c4cnc([C@@H]5CCCN5C(=O)[C@@H](NC(=O)OC)C(C)C)[nH]4)cc2C3=O)[nH]1)C(C)C", "value_comparator": "=", "pEC50": 10.05}
{"compound": "CCC1c2ccc(-c3cnc([C@@H]4CCCN4C(=O)[C@@H](NC(=O)OC)C(C)C)[nH]3)cc2Oc2ccc(-c3cnc([C@@H]4CCCN4C(=O)[C@@H](NC(=O)OC)C(C)C)[nH]3)cc21 (stereo partly specified)", "value_comparator": "=", "pEC50": 10.70}
{"compound": "COC(=O)N[C@H](C(=O)N1CCC[C@H]1c1ncc(-c2ccc3c(Cl)c4cc(-c5cnc([C@@H]6CCCN6C(=O)[C@@H](NC(=O)OC)C(C)C)[nH]5)ccc4cc3c2)[nH]1)C(C)C", "value_comparator": "=", "pEC50": 10.30}
{"compound": "COC(=O)N[C@H](C(=O)N1CCC[C@H]1c1ncc(-c2ccc3c(c2)Oc2ccc(-c4cnc([C@@H]5CCCN5C(=O)[C@@H](NC(=O)OC)C(C)C)[nH]4)cc2C3C)[nH]1)C(C)C (stereo partly specified)", "value_comparator": "=", "pEC50": 10.30}
{"compound": "CCCC/C=C1/c2ccc(-c3cnc([C@@H]4CCCN4C(=O)[C@@H](NC(=O)OC)C(C)C)[nH]3)cc2Oc2ccc(-c3cnc([C@@H]4CCCN4C(=O)[C@@H](NC(=O)OC)C(C)C)[nH]3)cc21", "value_comparator": "<", "pEC50": 10.00}
{"compound": "COC(=O)N[C@H](C(=O)N1CCC[C@H]1c1ncc(-c2ccc3c(c2)Oc2ccc(-c4cnc([C@@H]5CCCN5C(=O)[C@@H](NC(=O)OC)C(C)C)[nH]4)cc2N3C)[nH]1)C(C)C", "value_comparator": "=", "pEC50": 10.05}
{"compound": "COC(=O)N[C@H](C(=O)N1CCC[C@H]1c1ncc(-c2ccc3nc4cc(-c5cnc([C@@H]6CCCN6C(=O)[C@@H](NC(=O)OC)C(C)C)[nH]5)ccc4cc3c2)[nH]1)C(C)C", "value_comparator": "=", "pEC50": 10.30}
{"compound": "COC(=O)N[C@H](C(=O)N1CCC[C@H]1c1ncc(-c2ccc3c(c2)Oc2ccc(-c4cnc([C@@H]5CCCN5C(=O)[C@@H](NC(=O)OC)C(C)C)[nH]4)cc2O3)[nH]1)C(C)C", "value_comparator": "=", "pEC50": 11.00}
{"compound": "C/C=C1/c2ccc(-c3cnc([C@@H]4CCCN4C(=O)[C@@H](NC(=O)OC)C(C)C)[nH]3)cc2Oc2ccc(-c3cnc([C@@H]4CCCN4C(=O)[C@@H](NC(=O)OC)C(C)C)[nH]3)cc21", "value_comparator": "=", "pEC50": 10.22}
{"compound": "COC(=O)N[C@H](C(=O)N1CCC[C@H]1c1ncc(-c2ccc3cc4cc(-c5cnc([C@@H]6CCCN6C(=O)[C@@H](NC(=O)OC)C(C)C)[nH]5)ccc4cc3c2)[nH]1)C(C)C", "value_comparator": "=", "pEC50": 11.22}
{"compound": "COC(=O)N[C@H](C(=O)N1CCC[C@H]1c1ncc(-c2ccc3c(c2)Oc2ccc(-c4cnc([C@@H]5CCCN5C(=O)[C@@H](NC(=O)OC)C(C)C)[nH]4)cc2S3)[nH]1)C(C)C", "value_comparator": "=", "pEC50": 10.40}
{"compound": "COC(=O)N[C@H](C(=O)N1CCC[C@H]1c1ncc(-c2ccc3c(=O)c4cc(-c5cnc([C@@H]6CCCN6C(=O)[C@@H](NC(=O)OC)C(C)C)[nH]5)ccc4oc3c2)[nH]1)C(C)C", "value_comparator": "=", "pEC50": 11.00}
{"compound": "COC(=O)N[C@H](C(=O)N1CCC[C@H]1c1ncc(-c2ccc3c(c2)Oc2ccc(-c4cnc([C@@H]5CCCN5C(=O)[C@@H](NC(=O)OC)C(C)C)[nH]4)cc2S3(=O)=O)[nH]1)C(C)C", "value_comparator": "<", "pEC50": 9.00}

Reference source for all entries: ChEMBL document CHEMBL3808305
